System: IGROV-1
assay-protocol: NCI tumour cell line growth inhibition, 48 h
Calls of active or inactive are those of the source. Cut-off read from the data, not from the text of the source: active = GI50 up to about 1.1 µM and inactive = higher.
Pick one and only one: yes (1) = active, no (0) = inactive

CCN(CC)CC(C)(C)C(=O)/C=C/c1cccc(/C=C/C(=O)C(C)(C)CN(CC)CC)c1; yes (1)
S=C(Nc1ccc2c(c1)oc1ccccc12)c1cccs1; no (0)
CC1=C(C(=O)CC(=O)C(=O)Nc2cc(C)ccc2C)Sc2ccccc2N1; no (0)
O=c1c(O)c(-c2ccccc2)oc2c(CP(=O)(O)O)cccc12; no (0)
O=C(CN(c1ccccc1)c1ccccc1)n1nnc2ccccc21; no (0)

Per the records of this test, what outcome belongs to `O=c1[nH]nc(-c2ccccc2)n1/N=C\CC/C=N\n1c(-c2ccccc2)n[nH]c1=O` ? no (0)

Proceed to `Cc1ccc(/C=N/Nc2nncc3ccccc23)s1` no (0)

Query `COc1ccc(-c2cc(O)c3cc(OC)ccc3n2)cc1` next no (0)

Cool, now CCCCCCCCCCCCCCCCOP(=O)(O)OP(=O)(O)OCC1OC(n2cnc3c(N)ncnc32)C(O)C1O (stereo not drawn) no (0)

Item: `C[Si](C)(C)CC(N)=O` no (0)

###

Test system: NCI-H226
assay-protocol: NCI tumour cell line growth inhibition, 48 h
Calls of active or inactive are those of the source. No stated cut-off is given here; in the data, active = GI50 up to about 1.1 µM and inactive = higher.
Lab note: assign the record to one of 1 (active), -1 (inactive)

Field: example entries. Status: answers known.
COC(=O)C12C3C4C5(C(=O)OC)C(C1C35C(=O)N(C(C)C)C(C)C)C42C(=O)N(C(C)C)C(C)C (centres undefined); -1
O=C1c2ccccc2C(=O)c2c(Nc3ccc4c5c(cccc35)C(=O)c3ccccc3-4)cccc21; -1
N#Cc1c(N)c2c(c(-c3ccccc3)c1-c1ccccc1)C(=O)N(NC(=O)c1ccccc1)C2=O; -1

Below: the item to evaluate.
Hi, do you know how `COC(=O)[C@H](C)NC(=O)[C@H](CSC)N1C(=O)N[C@@H](C(C)C)C1=O` came out in this test? -1

###

Tested on: NCI/ADR-RES
assay-protocol: NCI tumour cell line growth inhibition, 48 h
The source made the active and inactive calls. Rule as the data show it: active = GI50 up to about 1.1 µM and inactive = higher.
Just give me one of these, please: active, inactive

Hello, I am checking results. What call was entered for COC1CC2C=CC3C4OC2(/C(C)=C/C(C)C(C(C)O)OC1=O)C3C(O)C(C)C4OC(=O)c1ccc[nH]1 (stereo unspecified) ? inactive

Next: COc1cc2c(c(OC)c1OC)-c1ccc(OC)c(=O)cc1C(NC(=O)CCCCCNc1ccc(N=[N+]=[N-])cc1[N+](=O)[O-])CC2 (stereo unspecified) active

And C[C@]12CC[C@H](O)CC1=CC[C@@H]1C2CC[C@]2(C)Nc3c(cnn3-c3ccc(F)cc3)CC12 (stereo partly specified) ? inactive

Field entry: CCOC(=O)CCC(C(=O)OCC)n1nc2ccc(Nc3c(C)[n+]([O-])c4cc(F)c(OCC)cc4[n+]3[O-])cc2n1 (stereo unspecified) inactive

Another: COC(C)C(O)(C(=O)OCC1=CCN2CCC(O)C12)C(C)(C)O (stereo unspecified) inactive

Now this one: `CCCCCc1nnc(NS(=O)(=O)c2ccc(NC(=O)OCC(C)C)cc2)s1` inactive

###

Tested on: SNB-19
assay-protocol: NCI tumour cell line growth inhibition, 48 h
Activity calls are given as the source filed them. Rule as the data show it: active = GI50 up to about 1.1 µM and inactive = higher.
// classify into class 1 for active, class 0 for inactive

CCOC(=O)C(NC(=O)c1nc[nH]c1[N+](=O)[O-])C(C)C (configuration not stated); class 0
O=c1c2ccc(Cl)cc2oc2c(CNc3ccc(S(=O)(=O)Nc4nccs4)cc3)cccc12; class 0
O=C1CC23CCCCCCCCCCC2(C1)CC(=O)C3 (configuration not stated); class 0
CC(=O)Nc1ccc(/C=c2\sc3nnc(CCC(=O)Nc4ccccc4Cl)n3c2=O)cc1; class 0
O=C(CCc1ccc(O)cc1)NCCc1ccc(O)cc1; class 0
CCOC(=O)c1c[nH]c2c(Sc3ccccc3)nccc2c1=O; class 0
Oc1ccc2c3c1OC1c4[nH]ncc4C[C@H]4[C@@H](C2)N(CC2CC2)CC[C@]314 (some centres not stated); class 0
OB(O)c1ccccc1C#Cc1ccccc1B(O)O; class 0
COc1cc(C)cc2c(-c3c(O)cc(O)c4c3C[C@H](C)N[C@H]4C)cc(-c3cc(-c4c(O)cc(O)c5c4C[C@H](C)N[C@H]5C)c4cc(C)cc(OC)c4c3O)c(O)c12; class 0
CCCCOP(=O)(OCCCC)/C(C#N)=C/c1ccco1; class 0

Which outcome was assigned to `N#C/C(=C\c1ccc(F)cc1)c1nc2ccccc2c(=O)[nH]1` in this test? class 0

Likewise for `O=C1C=C(OCCCCl)C(=O)c2c(O)ccc(O)c21` ? class 0

###

System: DMS-273
assay-protocol: NCI tumour cell line growth inhibition, 48 h
Calls of active or inactive are those of the source. Rule as the data show it: active = GI50 up to about 1.1 µM and inactive = higher.
The following compounds are shown together with reported GI50 values.

Here is how some compounds turned out for GI50.
CCOC(=O)C(NC(=O)c1nc[nH]c1[N+](=O)[O-])C(C)C (stereo unspecified); 53.6 µM (inactive)
NC(=O)/N=C1\NC(Cc2ccccc2)C(=O)N1Cc1ccccc1 (stereo unspecified); > 100 µM (inactive)
O=C(COc1ccccc1Cl)N1N=C(c2ccc(Cl)cc2)CC1(O)c1ccccc1 (stereo unspecified); > 100 µM (inactive)

Request the reported GI50 associated with CC1(C)C2C/C(=C\c3ccccc3)C(=O)C1C2 (stereo unspecified) > 100 µM (inactive)

Entry COCCNC(=O)C1C(=O)C(=O)N(CCOC)C1=O (stereo unspecified) please > 100 µM (inactive)

Now the same for O=c1[nH]cnc2c1nnn2C1C=C(CO)C(O)C1O (stereo unspecified) 23.5 µM (inactive)

###

Tested on: SW-620
assay-protocol: NCI tumour cell line growth inhibition, 48 h
The source made the active and inactive calls. Rule as the data show it: active = GI50 up to about 1.1 µM and inactive = higher.
quantity-measured: GI50

CCCCN(CC)CC(C(C)=O)c1c(O)c2ccccc2oc1=O (stereo not given); > 100 µM (inactive)
Nc1c(C(=O)Nc2ccc([As](=O)(O)O)cc2)cnc2nnnn12; > 100 µM (inactive)
C/C(CC(O)(C(F)(F)F)C(F)(F)F)=N\N; > 10 µM (inactive)
CC(=O)Nc1ccc(OC/C(N)=N/NC(=O)c2ccncc2)cc1; > 100 µM (inactive)

What does the record list as GI50 for `O=C(O)Cc1cccc2c(=O)c3cccc([N+](=O)[O-])c3oc12` ? > 100 µM (inactive)

Let us now turn to `N#Cc1cc([N+](=O)[O-])ccc1NC(=O)C(=O)Nc1n[nH]c(N)n1` > 100 µM (inactive)

And `N/C(=N\c1ccc(Cl)cc1)NS(=O)(=O)c1c(C(F)(F)F)cccc1C(F)(F)F` ? 33.3 µM (inactive)

Another: Nc1ncnc2c1nc(-c1ccccc1)n2C1OC(CO)C(O)C1O (stereo not given) > 100 µM (inactive)

Follow-up entry: `O=C(Cc1csc(N/N=C2\C(=O)Nc3ccccc32)n1)Nc1ccccc1` 33 µM (inactive)

Likewise for Cc1nn(C(=O)c2ccc(Cl)cc2)c2c1C(c1cccc([N+](=O)[O-])c1)SC(=N)N2 (stereo not given) ? > 10 µM (inactive)

Same again, this time with CCC(C)[C@H](NC(=O)[C@H](Cc1ccccc1)NC(=O)N(CC)c1ccccc1)C(=O)N[C@@H](CC(C)C)C(=O)OC (stereo not given in full) 31.6 µM (inactive)

And CCCCCCCCCCCCCCCCOP(=O)(O)OP(=O)(O)OCC1OC(n2cnc3c(N)ncnc32)C(O)C1O (stereo not given) ? > 100 µM (inactive)

What about COc1ccc(N2C(=O)CSC2c2c[nH]c3ccccc23)cc1 (stereo not given) ? > 100 µM (inactive)

Continue with `O=C(O)CN1C(=O)CN=C(c2ccccn2)c2cc(Cl)ccc21` > 100 µM (inactive)

Now consider `CN(C)CCC(CCN(C)C)=NO` . > 100 µM (inactive)

Next record, please: Cc1cn(C2CC(N=[N+]=[N-])C(CO[Si](C)(C)C(C)(C)C)O2)c(=O)[nH]c1=O (stereo not given) 16.9 µM (inactive)

Let us now turn to `O=C1CC(=O)N(c2ccccc2)N1/C(=C/c1ccccc1)c1ccccc1` 17.3 µM (inactive)

Please do the same for `OC(c1ccccc1)(c1ccccc1)c1ccncc1` as well. > 100 µM (inactive)

Next compound: `COC(=O)c1c2c(cc3c1CC1(Cc4cc5c(cc4C1)CCC5)C3)CCC2` > 100 µM (inactive)

###

Tested on: SW-620
assay-protocol: NCI tumour cell line growth inhibition, 48 h
Calls of active or inactive are those of the source. Cut-off read from the data, not from the text of the source: active = GI50 up to about 1.1 µM and inactive = higher. Residues, ends and D or L forms follow the SMILES beside them. *: point of attachment. Boc = CC(C)(C)OC(=O)*
Below: a set of entries, each annotated with reported GI50.

Take a look at these entries with their results.
O=C1N[C@@H]([C@H]2CC[C@H](Cl)CN2)C(=O)N[C@H]1[C@H]1CC[C@H](Cl)CN1; 0.962 µM (active)
Nc1nc(=O)n(CC(O)CO)s1 (stereo unspecified); > 100 µM (inactive)
Nc1n2nc(-c3ccccc3)sc2n[n+]1CC(=O)c1ccccc1; 4.89 µM (inactive)

Could you tell me which GI50 is on file for COC(=O)C(Cc1c[nH]c2ccccc12)NC(=O)C(Cc1c[nH]c2ccccc12)NC(=O)C(Cc1c[nH]c2ccccc12)NC(=O)C(Cc1c[nH]c2ccccc12)NC(=O)C(Cc1c[nH]c2ccccc12)NC(=O)C(Cc1c[nH]c2ccccc12)NC(=O)OC(C)(C)C (stereo unspecified) (Boc-WWWWWW-OMe; configuration not given here) ? > 100 µM (inactive)

Item: `CCCN(CCC)C(=O)Cc1c2n(c3ccccc13)CCCc1ccccc1-2` 16.6 µM (inactive)

Further, for `COc1ccc(/C(Cl)=C(/c2ccc(O)cc2)c2ccc(OCCN(C)C)cc2)cc1` ? 11.9 µM (inactive)

Same lookup for `CCOC(=O)c1c[nH]c2c(Sc3ccccc3)nccc2c1=O` , please. > 100 µM (inactive)

Could you do the same for `Oc1ccc(C(c2ccc(O)cc2)c2ccc(O)cc2)cc1` , please? 26.8 µM (inactive)

What do we get for `Cc1nn(CN2CCN(C)CC2)c(=S)n1/N=C/c1ccc(-c2ccc(Cl)cc2Cl)o1` ? 42.7 µM (inactive)
